Test system: T. cruzi intracellular amastigotes in H9c2 cells
Test: Rate-of-Kill (RoK) high-content imaging assay, amastigotes per cell (AM/CELL) and curve descriptors
Format: cell-based, Trypanosoma cruzi
Conditions: Time 4; sheet figure 4 A
Experimental: For this high-content intracellular imaging assay, H9c2 cells were seeded in 225 cm^2 T- FLASK in DMEM with 10% FBS for 4 h to allow attachment. […] Trypomastigotes were then collected and counted in a CASY Cell Counter using the 60 μm capillary. […] Cells were counted in a CASY Cell Counter, using the 150 μm capillary, and their density set at 5 x 10^4 cells/mL in supplemented DMEM. […] Then plates were read in a PerkinElmer Opera Phenix using a 20x objective, 3 fields per well. […]
endpoint: AM/CELL NORM
Format: numeric value only, no unit, no commentary.

Asked: Quick one: AM/CELL NORM of CC(=Cc1ccccc1)CN1CCC(=O)N(Cc2cccnc2)CC1 [TCMDC-143421] ?
Given back: -0.3924

Asked: Next compound up: O=c1[nH]cnc2c([C@@H]3O[C@H](CO)[C@@H](O)[C@H]3O)n[nH]c12 [TCMDC-143083, Formycin B]
Given back: 22.2526

Asked: // same read-out, input: O=C(CSc1ccc(F)cc1)N[C@@H](Cc1cnc[nH]1)C(=O)NCCc1ccccc1.O=C(O)C(F)(F)F [TCMDC-143317]
Given back: -0.3431

Asked: Same lookup for O=C(O)/C=C\C(=O)O.O=C(c1ccc(OCCCc2cnc[nH]2)cc1)C1CC1 [TCMDC-143632] , please.
Given back: 10.5519

Asked: What about this compound? CN(Cc1ccc(C(N)=O)cc1)C(c1ccc(F)cc1)c1cccnc1 (centres unmarked) [TCMDC-143504]
Given back: 2.577

Asked: What about COc1ccc(C(=O)Nc2cc(C(F)(F)F)ccc2N2CCOCC2)c(OC)c1 [TCMDC-143310] ?
Given back: -57.2428

Asked: What do we get for CCCN1CCN(Cc2ccc(S(=O)(=O)Nc3cccc(C)c3)cc2)CC1.O=C(O)C(F)(F)F.O=C(O)C(F)(F)F [TCMDC-143550] ?
Given back: -2.745

Asked: And COc1cccc(CCNC(=O)C(c2cn[nH]c2)N2CCN(c3ccc(Cl)cc3)CC2)c1 (centres unmarked) [TCMDC-143434] ?
Given back: 2.576

###

tested on: H9c2 (rat cardiomyocytes); assay: RoK assay, number of host cells nuclei (drug-related cytotoxicity, H9c2 output, Cmin_Tox); conditions: H9c2 host cells
endpoint: Cmin_Tox

Asked: Return reported Cmin_Tox; argument: CS(=O)(=O)NC1CCC(Oc2cc3cnccc3cc2-c2ccsc2)CC1.O=C(O)C(F)(F)F (stereo not drawn)
Given back: >50 µM

Asked: Subsequent entry: CC(C)N(C(=O)CN1C(=O)C(N)C(=O)N(c2ccccc2)c2ccccc21)c1ccccc1 (stereo not drawn)
Given back: >50 µM

Asked: Queued: CN(C(=O)Nc1ccc2c(c1)CCN(C1CCC1)CC2)c1ccc(C#N)cc1.Cl
Given back: >50 µM

Asked: Record: CCN(Cc1ccncc1)Cc1ccc(NC(=O)c2cc(-c3ccc(F)cc3)n[nH]2)cc1
Given back: >50 µM

Asked: // next record O=C(CSc1ccc(F)cc1)N[C@@H](Cc1cnc[nH]1)C(=O)NCCc1ccccc1.O=C(O)C(F)(F)F
Given back: >50 µM

Asked: Also COc1ccc(NS(=O)(=O)c2cc(NC(=O)c3ccc([N+](=O)[O-])s3)ccc2OC)cc1 ?
Given back: >50 µM

Asked: Moving on to the next molecule: CCCN1CCN(Cc2ccc(S(=O)(=O)Nc3cccc(C)c3)cc2)CC1.O=C(O)C(F)(F)F.O=C(O)C(F)(F)F
Given back: >50 µM

Asked: Here is the next molecule: O=C(Nc1ccc(Br)c(Cl)c1)Nc1ccc2c(c1)OCO2
Given back: >50 µM

Asked: How about CN(C)Cc1ccc(-c2ccc(S(=O)(=O)NCC3CCCO3)c(F)c2)cc1.O=C(O)C(F)(F)F (stereo not drawn) ?
Given back: >50 µM

Asked: One more molecule: COc1cc(C(C)C)c(S(C)(=O)=O)cc1C(=O)N1CCN(c2ccccc2Cl)CC1
Given back: >50 µM

Asked: Same for Cc1c(C#N)c([N+](=O)[O-])nn1Cc1cccc(Cl)c1Cl
Given back: >50 µM

Asked: How about CCCN(Cc1ccc(OC)c(OC)c1)Cc1cc(=O)c2c(C)cc(C)cc2[nH]1 ?
Given back: >50 µM

Asked: Same question, O=C(NCCc1ccccn1)C(c1cn[nH]c1)N1CCN(c2ccc(Cl)c(Cl)c2)CC1 (stereo not drawn) this time
Given back: >50 µM

Asked: Now the molecule CC[C@@H]([C@H](C)O)n1ncn(-c2ccc(N3CCN(c4ccc(OC[C@@H]5CO[C@@](Cn6cncn6)(c6ccc(F)cc6F)C5)cc4)CC3)cc2)c1=O [Posaconazole, reference compound]
Given back: 42.2 µM

Asked: Also need O=C(NCc1ccncc1)c1ccccc1N1CCCN(C(=O)Cc2ccc(F)c(F)c2)CC1.O=C(O)C(F)(F)F.O=C(O)C(F)(F)F , thanks.
Given back: >50 µM

Asked: Can you check O=C(NCCc1cccnc1)c1ccc(-c2ccccc2F)o1 next?
Given back: >50 µM

Asked: Then COc1ccc(NS(=O)(=O)c2cc(NC(=O)Cc3ccc(C)cc3)ccc2N2CCOCC2)cc1 ?
Given back: 0.6 µM

Asked: // query: COc1cc(NC(=O)Nc2cccc(CNC(=O)OC3CCCCC3)c2)ccc1-c1cnco1
Given back: 16.7 µM

Asked: Further, for CCCCn1nnnc1CSc1nc(C)cc(C)c1C#N ?
Given back: >50 µM

Asked: Another: O=C(NCC1CCCCC1)c1cc(=O)c2ccccc2o1
Given back: 50.0 µM

Asked: Same lookup for COc1ccccc1-c1c(C)[nH]c2nc(N)nc(C)c12 , please.
Given back: >50 µM

Asked: // repeat for COc1ccc2c(Cl)c(C(=O)N3CCC3)sc2c1Cl and report
Given back: >50 µM

Asked: Cc1nccn1C1CCCN(C(=O)c2cc3c(F)cccc3s2)C1 (stereo not drawn) , same question.
Given back: >50 µM

Asked: Also need O=C(C1CCCCC1)N1CCN(c2nnc(-c3ccccc3)c3ccccc23)CC1 , thanks.
Given back: >50 µM

Asked: Next entry: CC(=Cc1ccccc1)CN1CCC(=O)N(Cc2cccnc2)CC1
Given back: >50 µM

Asked: Please give the result for CC(C)c1cc(C(=O)N2CCCC(c3cc4ncccc4[nH]3)C2)on1 (stereo not drawn) too.
Given back: >50 µM

Asked: Field entry: CN1CCCN(C(=O)c2ccc(N3CCCC3)cc2Cl)CC1
Given back: >50 µM

Asked: Here is the next molecule: O[C@H]1CC[C@H](Nc2nccc(-c3sc(C4CCOCC4)nc3-c3ccc(F)c(F)c3)n2)CC1
Given back: 16.7 µM

Asked: Note, next up: O=C(Cn1ccnc1[N+](=O)[O-])NCc1ccccc1 [Benznidazole, benznidazole, reference compound]
Given back: >50 µM

Asked: Likewise for Cl.O=c1cc(NCCCNC2CCOc3c(I)cc(Cl)cc32)[nH]c2ccccc12 (stereo not drawn) ?
Given back: 50.0 µM

Asked: Same lookup for O=C(NCCc1cccnc1)c1csc(-c2ccccc2)n1 , please.
Given back: >50 µM

Asked: Subsequent entry: CN(C)Cc1ccc(N2CCC(NS(=O)(=O)c3ccc(Cl)cc3)CC2)cc1
Given back: 25.3 µM

Asked: Record: O=S(=O)(c1cccc(CSc2nnc(-c3ccc4c(c3)OCO4)o2)c1)N1CCOCC1
Given back: >50 µM

###

Exercise: state measured IC50 for each of the compounds provided.
system: T. cruzi Tulahuen trypomastigotes; experiment: T. cruzi trypomastigote assay (Cell Titer-Glo viability, ATP luminescence); type: cell-based, Trypanosoma cruzi; conditions: Trypanosoma cruzi, TULAHUEN, 72 h, read-out: Trypomastigotes pIC50 72 hours (converted)
Write the number in µM without appending the unit.

Asked: Look up IC50 for this compound: O=c1[nH]cnc2c([C@@H]3O[C@H](CO)[C@@H](O)[C@H]3O)n[nH]c12 [TCMDC-143083, Formycin B]
Given back: 2.51

Asked: Quick one: CC1CS(=O)(=O)CCN1/N=C/c1ccc([N+](=O)[O-])o1 (stereo not shown) [Nifurtimox, nifurtimox, reference compound]
Given back: 1.26

Asked: Similarly, O=C(Cn1ccnc1[N+](=O)[O-])NCc1ccccc1 [Benznidazole, benznidazole, reference compound] ?
Given back: 5.01

###

System: T. cruzi intracellular amastigotes in H9c2 cells
Experiment: Rate-of-Kill (RoK) high-content imaging assay, amastigotes per cell (AM/CELL) and curve descriptors
Type: cell-based, Trypanosoma cruzi
Conditions: maximum effect at 72 h, RoK assay
Method: For this high-content intracellular imaging assay, H9c2 cells were seeded in 225 cm^2 T- FLASK in DMEM with 10% FBS for 4 h to allow attachment. […] Trypomastigotes were then collected and counted in a CASY Cell Counter using the 60 μm capillary. […] Cells were counted in a CASY Cell Counter, using the 150 μm capillary, and their density set at 5 x 10^4 cells/mL in supplemented DMEM. […] Then plates were read in a PerkinElmer Opera Phenix using a 20x objective, 3 fields per well. […]
Give measured ME_72h (%) for each item. Keep answers brief.
Please state the figure in %; there is no need to write the unit.

Asked: What value of ME_72h (%) has been recorded for this entry: CC(C)(C)C(Cn1ccnc1)NC(=O)c1ccc2nc(C3CC3)oc2c1 (centres unmarked)
Given back: -54.0

Asked: Please do the same for O=C(NCCc1cccnc1)c1csc(-c2ccccc2)n1 as well.
Given back: 54.1

Asked: Entry O=C(c1cccc(Cl)c1Cl)N1CCn2c1nc(-c1ccncc1)cc2=O please
Given back: 11.7

Asked: Also check O=C(NCc1ccncc1)c1ccccc1N1CCCN(C(=O)Cc2ccc(F)c(F)c2)CC1.O=C(O)C(F)(F)F.O=C(O)C(F)(F)F
Given back: 30.6

Asked: Please give the result for COc1cc(-c2nc(N3CCOCC3)sc2-c2ccnc(NC3CCOCC3)n2)ccc1Cl.O=C(O)C(F)(F)F too.
Given back: 10.4

Asked: Again, but for CS(=O)(=O)c1cccc(CNC(=O)c2cncc(N3CCN(c4ccc(F)cc4)CC3)c2)c1.O=C(O)C(F)(F)F.O=C(O)C(F)(F)F.O=C(O)C(F)(F)F
Given back: 59.0

Asked: What about O=C(NCCc1ccccc1Cl)c1cccn1-c1cccnc1 ?
Given back: 24.5

Asked: And then CCOc1ccc(NC(=O)C=Cc2ccc(CC)o2)cc1 , what is it?
Given back: -988.4
